Data origin: PubChem BioAssay AID651610

procedure_text: inhibitors of HIV-1 Env-driven cell-cell fusion, primary screen, HeLa-JRFL effector, CEM21 target cells, luciferase (AID 651610);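 also: 0% = plate neutral controls and 100% = maraviroc near 300 nM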
condition_summary: active compounds read high; at 16.7 µM unless noted
The campaign covered roughly 360,000 compounds. About 3,900 (1.1%) were called active. This excerpt belongs to a sample that is enriched for actives.
experimental_readout: inhibition

compound | test_result
Cc1cc(C(=O)N2CCC(C(=O)O)CC2)c(C(F)(F)F)o1 | 87.5% [at 12.3 µM] (active)
COc1ccc(NC(=O)Nc2ccc3c(c2)CC(=O)N([C@@H](C)CO)C[C@H](C)[C@@H](CN(C)S(=O)(=O)c2cn(C)cn2)O3)cc1 | 13% (inactive)
O=C(O)C1CCN(C(=O)c2cc(F)cc3c2OCOC3)CC1 | -1.42% [at 12.3 µM] (inactive)
O=C(Cc1ccncc1)Nc1ccc2c(c1)[C@@H]1C[C@H](CC(=O)N3CCCCC3)O[C@H](CO)[C@@H]1O2 | 9.17% (inactive)
C[C@H](CO)N1C[C@H](C)[C@@H](CN(C)C(=O)CCC(F)(F)F)OCCCC[C@H](C)Oc2ccc(NC(=O)C3CCCCC3)cc2C1=O | -45.1% (inactive)
COc1ccccc1CNC(=O)C[C@H]1C[C@@H]2c3cc(NC(=O)c4ccc5c(c4)OCO5)ccc3O[C@@H]2[C@H](CO)O1 | 4.06% (inactive)
CC1(C)C(=O)Nc2ccccc2N1C(=O)COC(=O)Cn1cnc2ccccc2c1=O | -40.1% [at 12.3 µM] (inactive)
CO[C@H]1CN(C)C(=O)c2ccc(NC(C)=O)cc2OC[C@@H](C)N(C(=O)c2ccccn2)C[C@@H]1C | 4.28% (inactive)
CN(C)c1nc(-c2cccnc2)nc(-c2ccc(Cl)cc2)c1C#N | -27.7% [at 12.3 µM] (inactive)
O=C(COC(=O)Cn1cnc2ccccc2c1=O)NCc1ccccc1Cl | 0.405% [at 12.3 µM] (inactive)
CCOC(=O)C1CCCN(C(=O)c2cc(-c3cccs3)oc2C)CC1 (centres undefined) | 29.9% [at 12.3 µM] (inactive)
CN(C)c1ccnc(Nc2ccc(F)cc2)c1C#N | 2.55% [at 12.3 µM] (inactive)
CCSc1nc(-c2ccc(OC)cc2)cc(-c2ccc(OC)cc2)c1C#N | 66% [at 12.3 µM] (active)
COc1ccc(CCNC(=O)CSc2nc(-c3ccc(OC)c(OC)c3)ccc2C#N)cc1 | 4.49% [at 12.3 µM] (inactive)
CNc1nccc(-c2ccc(Cl)cc2)c1C#N | 58.1% [at 12.3 µM] (active)
C/C=C/c1ccc([C@@H]2[C@@H](CO)N(C(=O)CN(C)C)C23CN(C(=O)C2CCCC2)C3)cc1 | 25.3% (inactive)
Cc1ccccc1C1CC(c2cccs2)=NN1S(C)(=O)=O (centres undefined) | -91.6% [at 12.3 µM] (inactive)
O=C(COc1ccccc1Cl)N1N=C(c2cccs2)CC1c1ccco1 (centres undefined) | -7.8% [at 12.3 µM] (inactive)
CCCN(C)C[C@H]1Oc2ncc(-c3ccccc3OC)cc2C(=O)N([C@H](C)CO)C[C@@H]1C | 16.3% (inactive)

###

procedure_text: inhibitors of HIV-1 Env-driven cell-cell fusion, primary screen, HeLa-JRFL effector, CEM21 target cells, luciferase (AID 651610);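 also: 0% = plate neutral controls and 100% = maraviroc near 300 nM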
condition_summary: at 16.7 µM unless noted
Among all 360,000 compounds or so, about 3,900 (1.1%) were called active.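 Rule for the calls: active = mean replicate inhibition score of at least 50 and every replicate individually at or above 50; inconclusive = only one of the two criteria met; inactive = mean below 50 and not all replicates reaching 50.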 This excerpt belongs to a sample that is enriched for actives.
Possible outcomes: active, inactive

compound | cat
O=C(N[C@H]1CC[C@@H](CCNC(=O)C2CCC2)O[C@@H]1CO)c1ccncc1 | inactive
C[C@H](CO)N1C[C@H](C)[C@@H](CN(C)S(=O)(=O)c2cccc(F)c2)OCc2ccccc2-c2c(n(C)c3ccccc23)C1=O | active
CCC(=O)N[C@H]1CC[C@@H](CC(=O)NCc2cc(F)cc(F)c2)O[C@@H]1CO | inactive
C[C@@H]1CN([C@@H](C)CO)C(=O)c2cc(-c3cncnc3)cnc2O[C@H]1CN(C)C(=O)c1cccc(F)c1 | inactive
C[C@H](CO)N1C[C@H](C)[C@H](CN(C)C(=O)c2ccncc2)OCc2ccccc2-c2c(n(C)c3ccccc23)C1=O | active
CC(C)NC(=O)Nc1ccc2c(c1)CC(=O)N([C@H](C)CO)C[C@@H](C)[C@H](CN(C)S(=O)(=O)c1ccccc1)O2 | inactive
C[C@@H]1CCCCO[C@H](CN(C)Cc2ccc3c(c2)OCO3)[C@@H](C)CN([C@H](C)CO)C(=O)c2cc(N(C)C)ccc2O1 | inactive
C[C@@H]1CN([C@@H](C)CO)C(=O)c2cc(NC(=O)Cc3ccccc3)ccc2O[C@@H](C)CCCCO[C@@H]1CN(C)C(=O)Nc1ccccc1 | inactive
COc1cccc(Nc2nc(N)c([N+](=O)[O-])c(NCc3ccco3)n2)c1 | active
Cc1cccc(NC(=O)c2nc[nH]c2C(=O)NCC(=O)OCc2ccccc2)c1 | active
C[C@@H]1CN([C@@H](C)CO)C(=O)c2c(c3ccccc3n2C)-c2ccccc2CO[C@@H]1CN(C)S(=O)(=O)CC(F)(F)F | inactive
CCNC(=O)c1cc2c(c(-c3cccc(C4=CCCC4)c3)n1)[C@H](CCO)N([S@@](=O)C(C)(C)C)C2 | inactive
Cc1noc(C)c1S(=O)(=O)Nc1ccc2c(c1)C(=O)N([C@H](C)CO)C[C@@H](C)[C@@H](CN(C)S(=O)(=O)c1ccc(Cl)cc1)O2 | inactive
CNc1nc(Nc2ccc(C)c(Cl)c2)nc(N)c1[N+](=O)[O-] | inactive
CC(C)NC(=O)N(C)C[C@@H]1OCCCC[C@@H](C)Oc2ccc(NC(=O)c3ccccc3)cc2C(=O)N([C@@H](C)CO)C[C@H]1C | inactive
Cc1ccc(S(=O)(=O)Nc2ccc3c(c2)C(=O)N([C@@H](C)CO)C[C@H](C)[C@@H](CN(C)C(=O)Cc2ccccc2)OCCCC[C@H](C)O3)cc1 | inactive
CC(=O)c1c(C)[nH]c(C(=O)OCC(=O)Nc2cc(S(=O)(=O)N3CCCCC3)ccc2C)c1C | inactive
Nc1nc2n(n1)C(c1ccco1)CC(c1ccc(Cl)c(Cl)c1)N2 (configuration not stated) | inactive
C[C@@H]1CN([C@@H](C)CO)S(=O)(=O)c2ccc(C#CC3(O)CCCC3)cc2O[C@H]1CN(C)C(=O)c1ccncc1 | inactive
C[C@@H]1CN([C@H](C)CO)C(=O)c2cc(C#CC3CCCC3)cnc2O[C@@H]1CN(C)C(=O)C1CCC1 | inactive
O=C(C[C@@H]1C[C@H]2c3cc(NC(=O)Nc4ccccc4)ccc3O[C@H]2[C@@H](CO)O1)NC1CCCCC1 | inactive
CC(=O)c1c(C)[nH]c(C(=O)OCC(=O)Nc2c(C)cccc2C)c1C | active
CC1CCCCN1S(=O)(=O)c1ccc(S(=O)(=O)N(CC(=O)Nc2ccccc2)Cc2cccs2)cc1 (configuration not stated) | inactive
CN(C(=O)CCN1C(=O)/C(=C/c2ccccc2F)SC1=S)C1CCS(=O)(=O)C1 (configuration not stated) | inactive
CN1C(=O)c2cc(NS(=O)(=O)CC(F)(F)F)ccc2OC[C@H]2O[C@@H](CC(=O)NCc3ccc(Cl)c(Cl)c3)CC[C@@H]21 | inactive
CCc1ccc(-c2nc(SCC(=O)NC3CCCC3)n[nH]2)cc1 | active
C[C@H](CO)N1C[C@H](C)[C@H](CN(C)Cc2cccnc2)Oc2ncc(C3=CCCC3)cc2C1=O | inactive
C[C@@H]1CCCCO[C@H](CN(C)Cc2ccccc2)[C@@H](C)CN([C@H](C)CO)C(=O)c2cc(NS(C)(=O)=O)ccc2O1 | inactive
CNC[C@@H]1Oc2cc(-c3ccccc3OC)ccc2S(=O)(=O)N([C@@H](C)CO)C[C@H]1C | inactive
COc1ccc(Nc2nc(NCc3ccco3)nc(N/N=C/c3ccccc3Cl)n2)cc1 | inactive
C[C@@H]1CN([C@H](C)CO)C(=O)c2c(c3ccccc3n2C)-c2ccccc2CO[C@H]1CN(C)C(=O)c1ccncc1 | inactive
CSCc1nnc(NC(=O)c2ccc(S(=O)(=O)N3CCCCC3C)cc2)o1 (configuration not stated) | inactive

###

procedure_text: inhibitors of HIV-1 Env-driven cell-cell fusion, primary screen, HeLa-JRFL effector, CEM21 target cells, luciferase (AID 651610);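 also: 0% = plate neutral controls and 100% = maraviroc near 300 nM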
condition_summary: at 16.7 µM unless noted
Hit rate of the full screen: of about 360,000 compounds, about 3,900 (1.1%) were called active.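 The calls were made as follows: active = mean replicate inhibition score of at least 50 and every replicate individually at or above 50; inconclusive = only one of the two criteria met; inactive = mean below 50 and not all replicates reaching 50.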 For the sample, actives were picked, then their nearest neighbours and some compounds at random.
Outcomes: active, inactive

compound | cat
Cc1cccc(-n2c(SCC(N)=O)nc3c(c2=O)C2(CCCCC2)Cc2ccccc2-3)c1 | active
COc1ccccc1-c1cn(CC[C@H]2CC[C@H](NC(=O)Cc3ccccn3)[C@H](CO)O2)nn1 | inactive
C[C@H](CO)N1C[C@H](C)[C@@H](CN(C)C(=O)C2CC2)Oc2cc(-c3cccc(C#N)c3)ccc2S1(=O)=O | inactive
O=C(C[C@@H]1CC[C@H]2NC[C@H](O)COC[C@@H]2O1)NCCN1CCCCC1 | inactive
C[C@H]1CN([C@@H](C)CO)S(=O)(=O)c2ccc(C3=CCCC3)cc2O[C@@H]1CN(C)Cc1ccccc1 | inactive
Cn1cccc1Cc1nnc(SCC(=O)NCCc2ccccc2)n1-c1ccc(F)cc1 | inactive
COc1ccc(NC(=O)Nc2ccc3c(c2)C(=O)N([C@@H](C)CO)C[C@@H](C)[C@H](CN(C)C(=O)NC(C)C)OCCCC[C@H](C)O3)cc1 | inactive
C[C@@H]1CN([C@H](C)CO)S(=O)(=O)c2ccc(-c3ccncc3)cc2O[C@@H]1CN(C)C(=O)Nc1ccc(C(F)(F)F)cc1 | inactive
Cc1ccc(-c2ccc3c(c2)O[C@H](CN(C)C(=O)Nc2ccc(C(F)(F)F)cc2)[C@@H](C)CN([C@H](C)CO)S3(=O)=O)cc1 | active
C[C@@H]1CCCCO[C@@H](CN(C)Cc2ccncc2)[C@H](C)CN([C@H](C)CO)C(=O)c2cc(NC(=O)NC3CCCCC3)ccc2O1 | inactive
Cn1c(Cc2cccc3ccccc23)nnc1SCC(=O)N1CCN(c2cccc(Cl)c2)CC1 | active
Cc1cccc(-n2c(=O)c3c(C)c(C)sc3n(CC(N)=O)c2=O)c1 | inactive
CO[C@H]1CN(C)C(=O)c2ccc(NS(C)(=O)=O)cc2OC[C@@H](C)N(C(=O)c2ccc3c(c2)OCO3)C[C@@H]1C | inactive
O=C(NCc1ccco1)c1cc2sccc2n1Cc1ccc(F)cc1 | inactive
C[C@@H]1CN([C@@H](C)CO)S(=O)(=O)c2ccc(C#Cc3ccncc3)cc2O[C@@H]1CN(C)S(=O)(=O)c1ccccc1 | inactive
CCOC(=O)C1Cn2c(nc3c(c2=O)C(C)(CC)Cc2ccccc2-3)S1 (centres undefined) | inactive
O=C(Cc1ccc(-n2c(=O)c3sccc3n(Cc3ccc(F)cc3)c2=O)cc1)NCc1ccco1 | inactive
O=C(NCc1ccco1)c1ccc(Cn2c(=O)c3sccc3n(Cc3ccc(F)cc3)c2=O)cc1 | active
Cn1c(CNC(=O)c2ccco2)nnc1SCC(=O)N1CCN(c2ccccc2)CC1 | inactive
CCOc1c(CNCc2ccc(C(=O)O)cc2)cccc1OC | inactive
C[C@H]1CN([C@@H](C)CO)C(=O)c2cc(-c3cccnc3)cnc2O[C@@H]1CN(C)C(=O)C1CC1 | inactive
C[C@H]1CCCCO[C@H](CN(C)C(=O)Nc2ccc3c(c2)OCO3)[C@@H](C)CN([C@@H](C)CO)C(=O)c2cc(NC(=O)Nc3ccccc3)ccc2O1 | inactive
C[C@@H]1CN([C@@H](C)CO)C(=O)c2cc(C#CCc3ccccc3)cnc2O[C@@H]1CN(C)C(=O)C1CCOCC1 | inactive
Cc1ccc(S(=O)(=O)NCC[C@H]2CC[C@@H](NC(=O)C3CCOCC3)[C@@H](CO)O2)cc1 | inactive
C[C@@H]1CN([C@@H](C)CO)S(=O)(=O)c2ccc(-c3cccnc3)cc2O[C@H]1CN(C)CC1CCOCC1 | inactive
C[C@@H]1CN([C@@H](C)CO)S(=O)(=O)c2ccc(-c3cccc(F)c3)cc2O[C@@H]1CN(C)S(=O)(=O)c1ccccc1 | active
C[C@@H]1CN([C@H](C)CO)C(=O)c2ccccc2-c2ccccc2CO[C@H]1CN(C)C(=O)CCC(F)(F)F | inactive
Cc1cc2nnc(SCC(=O)N3CCN(c4ccccc4)CC3)n2c(N)n1 | inactive
C[C@@H]1CN([C@H](C)CO)S(=O)(=O)c2ccc(-c3cccc(F)c3)cc2O[C@H]1CN(C)S(=O)(=O)c1ccc(F)cc1 | inactive
COc1ccc(CNCCCNCc2ccc(OC)c(OC)c2)cc1OC | inactive
Cn1c(SCc2ccc(F)cc2)nnc1-c1ccncc1 | inactive
Cc1ccc(-c2noc(CSc3nnc(-c4ccncc4)n3-c3ccc(F)cc3)n2)cc1 | active
C[C@H](CO)N1C[C@H](C)[C@H](CN(C)S(=O)(=O)c2ccccc2)Oc2cc(Br)ccc2S1(=O)=O | active
CN(C)C(=O)c1cccc(-c2ccc3n(c2=O)C[C@H]2N[C@@H]3[C@@H](C(=O)NC3CCC3)[C@@H]2CO)c1 | inactive
